Parameter DC50: see the listing below.
- target or system: EGFR L858R-T790M (Homo sapiens, UniProt P00533, L858R/T790M)
- Construct: NCI-H1975 (harboring EGFR heterozygous L858R-T790M mutations); host or cells: NCI-H1975
- Sequence (P00533 25-1210 T790M/L858R): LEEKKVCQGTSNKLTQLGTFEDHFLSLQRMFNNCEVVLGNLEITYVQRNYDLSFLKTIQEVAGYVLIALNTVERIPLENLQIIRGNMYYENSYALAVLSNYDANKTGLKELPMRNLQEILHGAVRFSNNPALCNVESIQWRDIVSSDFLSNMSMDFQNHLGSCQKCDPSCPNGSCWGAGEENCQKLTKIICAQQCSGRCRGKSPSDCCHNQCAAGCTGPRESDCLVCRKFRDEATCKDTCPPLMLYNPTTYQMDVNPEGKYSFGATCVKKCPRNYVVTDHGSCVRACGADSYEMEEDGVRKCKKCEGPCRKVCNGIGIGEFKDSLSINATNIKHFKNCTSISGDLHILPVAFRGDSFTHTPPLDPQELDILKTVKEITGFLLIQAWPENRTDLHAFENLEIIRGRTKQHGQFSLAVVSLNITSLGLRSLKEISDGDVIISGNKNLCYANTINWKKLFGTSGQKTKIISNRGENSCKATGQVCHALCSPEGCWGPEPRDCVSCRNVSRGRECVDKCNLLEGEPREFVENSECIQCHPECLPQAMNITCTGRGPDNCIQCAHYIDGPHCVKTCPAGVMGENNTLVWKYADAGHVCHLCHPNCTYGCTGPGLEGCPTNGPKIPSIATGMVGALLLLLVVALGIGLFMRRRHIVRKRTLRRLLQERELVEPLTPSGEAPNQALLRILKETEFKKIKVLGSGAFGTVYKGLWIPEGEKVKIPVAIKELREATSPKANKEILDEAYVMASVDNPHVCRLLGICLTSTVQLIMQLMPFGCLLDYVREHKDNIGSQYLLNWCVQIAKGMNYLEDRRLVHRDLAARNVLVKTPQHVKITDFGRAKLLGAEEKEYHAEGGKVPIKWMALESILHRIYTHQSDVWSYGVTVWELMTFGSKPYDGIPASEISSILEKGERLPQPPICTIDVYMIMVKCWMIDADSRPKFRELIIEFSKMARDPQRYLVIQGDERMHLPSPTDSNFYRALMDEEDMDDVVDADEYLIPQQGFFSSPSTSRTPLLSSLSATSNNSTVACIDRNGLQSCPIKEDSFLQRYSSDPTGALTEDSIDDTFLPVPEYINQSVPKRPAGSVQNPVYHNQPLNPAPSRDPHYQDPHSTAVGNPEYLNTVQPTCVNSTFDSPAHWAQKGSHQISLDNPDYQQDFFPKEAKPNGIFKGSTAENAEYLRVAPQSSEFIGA
- experiment: EGFR degradation, Total EGFR (L858R-specific) HTRF, NCI-H1975
- Format: cell-based
- test conditions: Table 9B; NCI-H1975 cells, 6 hours, Total EGFR HTRF; read-out: H1975 EGFR DC50

- compound: "Cn1nc(N2CCC(=O)NC2=O)c2ccc(C3CCN(CC(=O)N4CC5(C4)CN(c4ccc(-c6cc(F)c7c(c6)C(=O)N(C(C(=O)Nc6nccs6)c6ncn8c6CCC8)C7)cc4)C5)CC3F)cc21 (single isomer, unassigned; isomer 2) [Compound 125]"
  DC50: "< 0.05 µM"

Let's switch to this compound now.
Query string: Quick one: give measured DC50 for Cn1nc(N2CCC(=O)NC2=O)c2ccc(C3CCN(C(=O)CN4CCC(c5ccc(-c6cc(F)c7c(c6)C(=O)N(C(C(=O)Nc6nccs6)c6ncn8c6CCC8)C7)cc5)CC4)CC3)cc21 (centres unmarked)
Result string: 0.05 to 0.15 µM

---

- target or system: EGFR L858R-T790M (Homo sapiens, UniProt P00533, L858R/T790M)
- Construct: NCI-H1975 (harboring EGFR heterozygous L858R-T790M mutations); host or cells: NCI-H1975
- experiment: EGFR degradation, Total EGFR (L858R-specific) HTRF, NCI-H1975
- Assay type: cell-based
- test conditions: Table 9B; NCI-H1975 cells, 6 hours, Total EGFR HTRF; read-out: H1975 EGFR DC50
measured quantity: DC50

- compound: "O=C1CC[C@@H](Nc2ccc(N3CCC(O)(CC(=O)N4CC5(C4)CN(c4ccc(-c6cc(F)c7c(c6)C(=O)N(C(C(=O)Nc6nccs6)c6ncn8c6CCC8)C7)cn4)C5)CC3)c(F)c2)C(=O)N1 (some centres unmarked)"
  target or system: "EGFR L858R-T790M (Homo sapiens, UniProt P00533, L858R/T790M)"
  DC50: "< 50 nM"

Query string: Return DC50 for the following compound: O=C1CCN(c2ccc(N3CCC(O)(CC(=O)N4CCC5(CC4)CN(c4ccc(-c6cc(F)c7c(c6)C(=O)N(C(C(=O)Nc6nccs6)c6ncn8c6CCC8)C7)cc4)C5)CC3)c(Cl)c2)C(=O)N1 (centres unmarked)
Result string: < 50 nM

Query string: Check the records and state DC50 for O=C1CC[C@H](Nc2ccc(C3CCN(CC(=O)N4CCCN(c5ccc(-c6cc(F)c7c(c6)C(=O)N(C(C(=O)Nc6nccs6)c6ncn8c6CCC8)C7)cc5)CC4)CC3)c(F)c2)C(=O)N1 (some centres unmarked)
Result string: 50 to 150 nM

Query string: Quick one: give measured DC50 for O=C1CCC(Nc2ccc(N3CCC(O)(CC(=O)N4CC5(C4)CN(c4ccc(-c6ccc7cn(C(C(=O)Nc8nccs8)c8ncn9c8CCC9)nc7c6F)cn4)C5)CC3)cc2F)C(=O)N1 (centres unmarked)
Result string: < 50 nM

Query string: Annotate the compound Cn1nc(N2CCC(=O)NC2=O)c2ccc(C3CCN(CC(=O)N4CCCN(c5ccc(-c6cc(F)c7c(c6)C(=O)N(C(C(=O)Nc6nccs6)c6ncn8c6CCC8)C7)cc5)CC4)CC3(F)F)cc21 (centres unmarked) with its measured DC50.
Result string: < 50 nM
